Data provenance is paper doi:10.1101/2023.07.12.548622v2.

# TARGET_DESC: hACKR3 (atypical chemokine receptor 3; CXCR7) (Homo sapiens, UniProt P25106, Q301E)
# Sequence (P25106 whole entry Q301E): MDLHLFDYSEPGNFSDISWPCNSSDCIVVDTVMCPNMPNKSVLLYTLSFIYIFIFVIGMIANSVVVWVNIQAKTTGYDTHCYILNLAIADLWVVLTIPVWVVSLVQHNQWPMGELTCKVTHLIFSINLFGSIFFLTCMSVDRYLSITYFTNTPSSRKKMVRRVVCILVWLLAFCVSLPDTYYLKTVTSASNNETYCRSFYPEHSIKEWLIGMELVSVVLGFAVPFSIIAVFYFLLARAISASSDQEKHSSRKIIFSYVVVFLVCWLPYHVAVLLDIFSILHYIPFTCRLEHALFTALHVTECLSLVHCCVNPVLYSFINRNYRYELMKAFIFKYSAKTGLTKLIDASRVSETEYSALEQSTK
# TEST_SUMMARY: homologous [3H]VUF15485 competition binding, HEK293T membranes
PROPERTY_MEASURED: pKi
Units for pKi: none; it is -log10 of a concentration expressed in mol/L.

Form field - read-out: pKi; system: hACKR3 (atypical chemokine receptor 3; CXCR7) (Homo sapiens, UniProt P25106, Q301E); submitted item: COc1cc(C(=O)N(CC[C@H]2CCCN2C)C/C(C)=C/c2ccccc2F)cc(OC)c1OC
7.77

---

# TARGET_DESC: hACKR3 (atypical chemokine receptor 3; CXCR7) (Homo sapiens, UniProt P25106)
# Sequence (P25106 whole entry): as the sequence (P25106 whole entry Q301E) above, with E301Q counted along it
# TEST_SUMMARY: [3H]VUF15485 saturation binding, HEK293T membranes
PROPERTY_MEASURED: Kd (µM)
Field: numeric (µM). Do not append units.

Can you share its Kd? I mean this compound: COc1cc(C(=O)N(CC[C@H]2CCCN2C)C/C(C)=C/c2ccccc2F)cc(OC)c1OC
0.016
